molecular target: N1-fused SRC kinases; assay: split reporter (BiFC, NanoBiT); Gaussia princeps luciferase complementation assay in human HEK293T cells; Gluc2 at the N terminus of SKAP1 or SKAP2 (N2), Gluc1 at the N terminus (N1) or C terminus (C1) of the SRC kinase; 100 ng plasmid pair, PEI; luminescence read in lysate one day later; normalized luminescence ratio (NLR), given relative to wild type or to SKAP2
QUANTITY: wild-type normalized NLR, mean over SRC kinases
Could you keep your reply to the number by itself?

BINDER	TEST RESULT
SKAP1 W333K mutant, N2-fused (natural protein) MQAAALPEEIRWLLEDAEEFLAEGLRNENLSAVARDHRDHILRGFQQIKARYYWDFQPQGGDIGQDSSDDNHSGTLGLSLTSDAPFLSDYQDEGMEDIVKGAQELDNVIKQGYLEKKSKDHSFFGSEWQKRWCVVSRGLFYYYANEKSKQPKGTFLIKGYGVRMAPHLRRDSKKESCFELTSQDRRSYEFTATSPAEARDWVDQISFLLKDLSSLTIPYEEDEEEEEKEETYDDIDGFDSPSCGSQCRPTILPGSVGIKEPTEEKEEEDIYEVLPDEEHDLEEDESGTRRKGVDYASYYQGLWDCHGDQPDELSFQRGDLIRILSKEYNMYGKWVGELNSLVGIVPKEYLTTAFEVEER	1.16

Continue with the binder presented below.
Exam item: Any idea what its wild-type normalized NLR, mean over SRC kinases is? The binder is SKAP1 D120K mutant, N2-fused (natural protein) MQAAALPEEIRWLLEDAEEFLAEGLRNENLSAVARDHRDHILRGFQQIKARYYWDFQPQGGDIGQDSSDDNHSGTLGLSLTSDAPFLSDYQDEGMEDIVKGAQELDNVIKQGYLEKKSKKHSFFGSEWQKRWCVVSRGLFYYYANEKSKQPKGTFLIKGYGVRMAPHLRRDSKKESCFELTSQDRRSYEFTATSPAEARDWVDQISFLLKDLSSLTIPYEEDEEEEEKEETYDDIDGFDSPSCGSQCRPTILPGSVGIKEPTEEKEEEDIYEVLPDEEHDLEEDESGTRRKGVDYASYYQGLWDCHGDQPDELSFQRGDLIRILSKEYNMYGWWVGELNSLVGIVPKEYLTTAFEVEER
Marked response: 1.17
